- system.tested: influenza A virus (IAV) PA-Nter fragment (amino acids 1-209) (Influenza A virus, UniProt P31343)
pIC50: −log10 of the molar value.
measure.name: pIC50

CC(C)N1CCn2c(CNS(=O)(=O)c3ccccc3Cl)cc(=O)c(O)c2C1=O    7.06
CC(C)N1CCn2c(CNS(=O)(=O)c3c(Cl)cccc3Cl)cc(=O)c(O)c2C1=O    6.92
CC(C)N1CCn2c(CNC(=O)CC34C[C@H]5C[C@@H](C3)C[C@@H](C4)C5)cc(=O)c(O)c2C1=O    5.77
CC(C)N1CCn2c(CNC(=O)C34CCC(CO)(CC3)CC4)cc(=O)c(O)c2C1=O    5.73
CC(C)N1CCn2c(CN(C)S(=O)(=O)c3ccccc3)cc(=O)c(O)c2C1=O    6.70
CC(C)N1CCn2c(CNC(=O)CC3CC3)cc(=O)c(O)c2C1=O    6.52
CC(C)N1CCn2c(CNS(=O)(=O)Cc3ccc(Cl)cc3)cc(=O)c(O)c2C1=O    6.22
CC(C)N1CCn2c(CNC(=O)c3ccc(Cl)cc3)cc(=O)c(O)c2C1=O    6.61
